Reference source for all entries: ChEMBL document CHEMBL1129469

# study_target: Type-1 angiotensin II receptor (Oryctolagus cuniculus)
# Sequence (P34976 whole entry): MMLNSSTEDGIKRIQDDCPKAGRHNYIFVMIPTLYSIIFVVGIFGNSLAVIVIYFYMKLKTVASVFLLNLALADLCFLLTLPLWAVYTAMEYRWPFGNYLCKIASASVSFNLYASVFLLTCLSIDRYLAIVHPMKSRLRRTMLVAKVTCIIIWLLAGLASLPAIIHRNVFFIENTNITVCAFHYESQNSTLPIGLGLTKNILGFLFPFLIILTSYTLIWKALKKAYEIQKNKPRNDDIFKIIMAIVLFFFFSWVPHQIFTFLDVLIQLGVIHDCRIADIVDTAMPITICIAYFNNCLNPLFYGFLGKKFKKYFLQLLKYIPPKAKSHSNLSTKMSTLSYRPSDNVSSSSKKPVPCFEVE
# experimental_details: Inhibitory activity was evaluated against angiotensin II type 1 rabbit aorta
# Format: tissue-based
metric_name: IC50

[[record]]
compound_smiles = "CCc1nc2c(CC)cn(Cc3ccc(-c4ccccc4-c4nn[nH]n4)cc3)n2n1"
experimental_value = "1.7 nM"

